condition_label: [M+H]+; instrument: DT; single field, calibrated with ESI Low Concentration Tuning Mix (Agilent)
property_measured: collision cross section (N2) (Å²)

[[record]]
compound = "CCOC(=O)Cc1c[nH]c2ccccc12 [ETHYL 3-INDOLEACETATE]"
quantitative_result = 145.2

[[record]]
compound = "NC(=O)[C@@H](N)Cc1c[nH]c2ccccc12 [L-TRYPTOPHANAMIDE]"
quantitative_result = 150.5

[[record]]
compound = "C[S+](CC[C@H](N)C(=O)[O-])C[C@H]1O[C@@H](n2cnc3c(N)ncnc32)[C@H](O)[C@@H]1O (stereo partly drawn)"
quantitative_result = 185.7

[[record]]
compound = "CCCCCCSC[C@H](NC(=O)CC[C@H](N)C(=O)O)C(=O)NCC(=O)O"
quantitative_result = 200.5

[[record]]
compound = "Nc1ncnc2c1ncn2[C@@H]1O[C@H](CSCC[C@H](N)C(=O)O)[C@@H](O)[C@H]1O"
quantitative_result = 182.9

[[record]]
compound = "Nc1nc(=O)c2ncn([C@@H]3O[C@H](COP(=O)(O)O)[C@@H](O)[C@H]3O)c2[nH]1 [GUANOSINE MONOPHOSPHATE]"
quantitative_result = 179.5

[[record]]
compound = "O=C1CC[C@@H](C(=O)O)N1 [OXOPROLINE]"
quantitative_result = 130.3

[[record]]
compound = "CC(=O)NCCc1c[nH]c2ccc(O)cc12"
quantitative_result = 149.6


###

condition_label: [M+Na]+; instrument: DT; stepped-field
property_measured: collision cross section (N2) (Å²)

[[record]]
molecule = "OC[C@H]1O[C@H](O[C@H]2[C@H](O)[C@H](O)COC2(O)CO)[C@H](O)[C@@H](O)[C@@H]1O (stereo partly drawn) [D-(+)-Turanose]"
property_measured = "collision cross section (N2)"
quantitative_result = 177

[[record]]
molecule = "CCCCC/C=C\\C/C=C\\C=C\\[C@@H](O)C/C=C\\CCCC(=O)O [8S-HETE]"
property_measured = "collision cross section (N2)"
quantitative_result = 187.17

[[record]]
molecule = "CCCCC[C@H](O)/C=C/C=C\\C=C\\C=C\\[C@@H](O)[C@@H](O)CCCC(=O)O [Lipoxin A4]"
property_measured = "collision cross section (N2)"
quantitative_result = 197.89

[[record]]
molecule = "O=C(O)CC(O)(CC(=O)O)C(=O)O [Citric Acid]"
property_measured = "collision cross section (N2)"
quantitative_result = 146.11


(a) CCCCC[C@H](O)/C=C/[C@@H]1[C@@H](C/C=C\CCCC(=O)O)[C@@H](O)C[C@H]1O [Prostaglandin F2a]
(b) N[C@@H](Cc1ccc(O)cc1)C(=O)O [L-Tyrosine]
**Query** Looking at recorded values for collision cross section (N2), does a or b come in lower? Output the label that corresponds to your choice.
**Result** b

(P) CCCCC[C@H](O)/C=C/[C@@H]1[C@@H](C/C=C\CCCC(=O)O)[C@@H](O)C[C@H]1O [Prostaglandin F2 alpha]
(Q) CC(=O)NCCCCN [N-Acetylputrescine]
**Query** Select one: P or Q . Criterion: greater recorded collision cross section (N2). Could you answer with the label of the item you picked?
**Result** P
(P: 207.33 Å², Q: 137.57 Å²)

###

condition_label: [M+NH4]+; instrument: DT; single field
property_measured: collision cross section (N2) (Å²)

[[record]]
entry_smiles = "CCCCC/C=C\\C/C=C\\CCCCCCCC(=O)OC[C@@H](COC(=O)CCCCCCC/C=C\\CCCCC)OC(=O)CCCCCCC/C=C\\C/C=C\\CCCCC"
quantitative_result = 312.57

[[record]]
entry_smiles = "CCCCCCCCC/C=C\\CCCCCCCC(=O)OC[C@H](COC(=O)CCCCCCCCCCCCCCCCCCCCC)OC(=O)CCCCCCC/C=C\\CCCCCCCCC"
quantitative_result = 346.03

[[record]]
entry_smiles = "CCCC/C=C\\C/C=C\\CCCCCCCC(=O)O[C@@H](COC(=O)CCCCCCCCC/C=C\\C/C=C\\CCCCC)COC(=O)CCCCCCCCCCC"
quantitative_result = 307.56

[[record]]
entry_smiles = "CCCCCCCCCCCCCCCCCCCCC(=O)OC[C@@H](COC(=O)CCCCCCCCCCC)OC(=O)CCCCCCCCCCCCCCCCCCCC"
quantitative_result = 331.43

[[record]]
entry_smiles = "CC/C=C\\C/C=C\\C/C=C\\C/C=C\\C/C=C\\C/C=C\\CCC(=O)OC[C@@H](COC(=O)CCCCCCCCCCCCCCC)OC(=O)CCCCCCCCCCCCCCCCCCC"
quantitative_result = 333.74


###

condition_label: [M-H]-; instrument: DT; single field, calibrated with Agilent tune mix (Agilent)
property_measured: collision cross section (N2) (Å²)

Past entries and their recorded results:
[[record]]
compound = "NC(=O)CC[C@H](NC(=O)Cc1ccccc1)C(=O)O [Alpha-N-Phenylacetyl-L-glutamine]"
quantitative_result = 162.82

[[record]]
compound = "Nc1ccc(C(=O)NCC(=O)O)cc1 [Aminohippuric acid]"
quantitative_result = 147.55

[[record]]
compound = "CC(=O)N[C@@H](Cc1ccc(O)cc1)C(=O)O [N-Acetyl-L-tyrosine]"
quantitative_result = 149.44

[[record]]
compound = "CCCCCCCCC(=O)O [Pelargonic acid]"
quantitative_result = 143.33

[[record]]
compound = "CC(=O)N[C@H]1[C@H]([C@H](O)[C@H](O)CO)O[C@](OP(=O)(O)OC[C@H]2O[C@@H](n3ccc(N)nc3=O)[C@H](O)[C@@H]2O)(C(=O)O)C[C@@H]1O [Cytidine monophosphate N-acetylneuraminic acid]"
quantitative_result = 215.5

[[record]]
compound = "O=C(O)CNC(=O)CCc1ccccc1 [Phenylpropionylglycine]"
quantitative_result = 153.3

[[record]]
compound = "Cn1cncc1C[C@H](N)C(=O)O [3-Methylhistidine]"
quantitative_result = 134.37

[[record]]
compound = "CCC(=O)NCC(=O)O [Propionylglycine]"
quantitative_result = 126.93


(I) Nc1ccn([C@H]2C[C@H](O)[C@@H](COP(=O)(O)OP(=O)(O)OP(=O)(O)O)O2)c(=O)n1 [Deoxycytidine 5'-triphosphate]
(II) O=C(O)c1ccc([O-])c(O)c1 [3,4-Dihydroxybenzoate]
**Query** Hi team, can someone confirm which has the larger collision cross section (N2): I or II ? Thanks. State your choice using its label.
**Result** I

###

condition_label: [M+H]+; instrument: TW; Major Mix IMS/Tof Calibration Kit (Waters)
property_measured: collision cross section (N2) (Å²)

[[record]]
compound = "O=C1CN=C(c2ccccc2)c2cc(Cl)ccc2N1CC(F)(F)F"
property_measured = "collision cross section (N2)"
units_symbol = "Å²"
quantitative_result = 170.9

[[record]]
compound = "CN(C)CCC=C1c2ccccc2CCc2ccccc21"
property_measured = "collision cross section (N2)"
units_symbol = "Å²"
quantitative_result = 167.2

[[record]]
compound = "CNCCCC1c2ccccc2C=Cc2ccccc21"
property_measured = "collision cross section (N2)"
units_symbol = "Å²"
quantitative_result = 162.8

[[record]]
compound = "CN1CCN(C(=O)OC2c3nccnc3C(=O)N2c2ccc(Cl)cn2)CC1 (centres undefined)"
property_measured = "collision cross section (N2)"
units_symbol = "Å²"
quantitative_result = 188.5

[[record]]
compound = "C[C@]12CCC(=O)C=C1CC[C@@H]1[C@@H]2[C@@H](O)C[C@@]2(C)[C@H]1CC[C@]2(O)C(=O)CO [Hydrocortisone]"
property_measured = "collision cross section (N2)"
units_symbol = "Å²"
quantitative_result = 186.6

[[record]]
compound = "CCCCc1oc2ccccc2c1C(=O)c1cc(I)c(OCCN(CC)CC)c(I)c1"
property_measured = "collision cross section (N2)"
units_symbol = "Å²"
quantitative_result = 226.4

[[record]]
compound = "Cc1cccc(Cc2cnc[nH]2)c1C"
property_measured = "collision cross section (N2)"
units_symbol = "Å²"
quantitative_result = 146.8

[[record]]
compound = "CCN(CC)CCOC(=O)c1ccc(N)cc1"
property_measured = "collision cross section (N2)"
units_symbol = "Å²"
quantitative_result = 154.6

[[record]]
compound = "COc1ccc(N2CCNCC2)cc1"
property_measured = "collision cross section (N2)"
units_symbol = "Å²"
quantitative_result = 141.9

[[record]]
compound = "CCCCc1nc(Cl)c(CO)n1Cc1ccc(-c2ccccc2-c2nn[nH]n2)cc1"
property_measured = "collision cross section (N2)"
units_symbol = "Å²"
quantitative_result = 200.3

[[record]]
compound = "CN(C)CCCN1c2ccccc2CCc2ccccc21"
property_measured = "collision cross section (N2)"
units_symbol = "Å²"
quantitative_result = 166.5

[[record]]
compound = "CCN(CC)CCCC(C)Nc1ccnc2cc(Cl)ccc12 (centres undefined)"
property_measured = "collision cross section (N2)"
units_symbol = "Å²"
quantitative_result = 176.8

[[record]]
compound = "C#CCN(C)[C@H](C)Cc1ccccc1"
property_measured = "collision cross section (N2)"
units_symbol = "Å²"
quantitative_result = 142.1

[[record]]
compound = "c1ccc([C@H]2CN3CCSC3=N2)cc1"
property_measured = "collision cross section (N2)"
units_symbol = "Å²"
quantitative_result = 144.6

[[record]]
compound = "COc1cc2nc(N(C)CCCNC(=O)C3CCCO3)nc(N)c2cc1OC (centres undefined)"
property_measured = "collision cross section (N2)"
units_symbol = "Å²"
quantitative_result = 194.6

[[record]]
compound = "CCC(NC)C(=O)c1ccc2c(c1)OCO2 (centres undefined)"
property_measured = "collision cross section (N2)"
units_symbol = "Å²"
quantitative_result = 151

[[record]]
compound = "CN(C)CCc1c[nH]c2cccc(O)c12"
property_measured = "collision cross section (N2)"
units_symbol = "Å²"
quantitative_result = 144.8

[[record]]
compound = "CNC[C@@H](C)CN1c2ccccc2Sc2ccc(OC)cc21"
property_measured = "collision cross section (N2)"
units_symbol = "Å²"
quantitative_result = 174.3

[[record]]
compound = "Cc1cccc(C)c1NC1=NCCCS1"
property_measured = "collision cross section (N2)"
units_symbol = "Å²"
quantitative_result = 147.9

